Tested on: mESC LDLR-Dup GFP reporter (SpCas9 MH-deletion repair)
Assay: fraction of GFP+ cells relative to DMSO control (fold change); higher = more MH-deletion repair to in-frame LDLR (or more editing)
Settings: 2 µM; 7 days post-transfection
Counter-ions that a name gives are not always drawn.
result_type: fraction of GFP+ cells

INSERT INTO assay_data (molecule, target_entity, result_type, reported_result) VALUES
  ('COc1ccc(S(=O)(=O)NCc2ccc(C(=O)NCCc3ccc(Cl)cn3)cc2)cc1', 'mESC LDLR-Dup GFP reporter (SpCas9 MH-deletion repair)', 'fraction of GFP+ cells', 0.936),
  ('O=C(CCCCCCNC(=O)c1cnc(N(c2ccccc2)c2ccccc2)nc1)NO', 'mESC LDLR-Dup GFP reporter (SpCas9 MH-deletion repair)', 'fraction of GFP+ cells', 0.968),
  ('CCCC(CCC)C(=O)O [Valproic acid sodium salt (Sodium valproate)]', 'mESC LDLR-Dup GFP reporter (SpCas9 MH-deletion repair)', 'fraction of GFP+ cells', 0.849),
  ('O=[N+]([O-])c1ccc(Nc2ccccc2-c2ccccc2)c2nonc12', 'mESC LDLR-Dup GFP reporter (SpCas9 MH-deletion repair)', 'fraction of GFP+ cells', 0.854),
  ('O=C(Nc1ccc(Cl)cc1)C1CCCN(C(=O)c2cccc(-c3ccco3)c2)C1 (stereo not given)', 'mESC LDLR-Dup GFP reporter (SpCas9 MH-deletion repair)', 'fraction of GFP+ cells', 0.756);

====

Tested on: mESC LDLR-Dup GFP reporter (SpCas9 MH-deletion repair)
Assay: fraction of GFP+ cells relative to DMSO control (fold change); higher = more MH-deletion repair to in-frame LDLR (or more editing)
Conditions: 2 µM; 7 days post-transfection
result_type: fraction of GFP+ cells

INSERT INTO measurements (compound, result_type, reported_result) VALUES
  ('CCCCCCCCCC(=O)N[C@@H](Cc1c[nH]c2ccccc12)C(=O)N[C@H](CC(N)=O)C(=O)N[C@@H](CC(=O)O)C(=O)N[C@@H]1C(=O)NCC(=O)N[C@@H](CCCN)C(=O)N[C@@H](CC(=O)O)C(=O)N[C@H](C)C(=O)N[C@@H](CC(=O)O)C(=O)NCC(=O)N[C@H](CO)C(=O)N[C@@H]([C@H](C)CC(=O)O)C(=O)N[C@@H](CC(=O)c2ccccc2N)C(=O)O[C@@H]1C [Daptomycin]', 'fraction of GFP+ cells', 1.25),
  ('Cc1nc(-c2cccnc2)sc1C(=O)Nc1ccccc1-c1cn2c(CN3CCOCC3)csc2n1', 'fraction of GFP+ cells', 1.34),
  ('Cc1nc(=O)c2cc(CN(C)c3ccc(C(=O)N[C@@H](CCC(=O)O)C(=O)O)s3)ccc2[nH]1 [Raltitrexed]', 'fraction of GFP+ cells', 2.3),
  ('CCN1/C(=C/C(C)=O)Sc2ccc(OC)cc21', 'fraction of GFP+ cells', 0.802),
  ('NC(=O)NO [Hydroxyurea]', 'fraction of GFP+ cells', 0.829),
  ('O=C(O)C(Cc1ccccc1[N+](=O)[O-])=NNc1nc(-c2ccc(Cl)c(Cl)c2)cs1 (mixture of isomers)', 'fraction of GFP+ cells', 1.15),
  ('CNC(=O)c1nn(C)c2c1C(C)(C)Cc1cnc(Nc3ccc(N4CCN(C)CC4)cc3)nc1-2', 'fraction of GFP+ cells', 0.352),
  ('Cc1ccc(C(=O)NCCCCCC(=O)Nc2ccccc2N)cc1', 'fraction of GFP+ cells', 1.26),
  ('Nc1cc(F)ccc1NC(=O)/C=C/c1cnn(C/C=C/c2ccccc2)c1', 'fraction of GFP+ cells', 0.555),
  ('Nc1ccc(O)c(C(=O)O)c1 [Mesalamine]', 'fraction of GFP+ cells', 0.933),
  ('Cc1cn([C@H]2C[C@H](N=[N+]=[N-])[C@@H](CO)O2)c(=O)[nH]c1=O [Zidovudine]', 'fraction of GFP+ cells', 1.09),
  ('Nc1ncnc2c1ncn2[C@@H]1O[C@H](CO)[C@@H](O)[C@H]1O [Adenosine]', 'fraction of GFP+ cells', 1.04),
  ('C#Cc1cccc(Nc2ncnc3cc(OC)c(OCCCCCCC(=O)NO)cc23)c1', 'fraction of GFP+ cells', 0.66),
  ('CC(=O)O/N=C1\C(=O)N(Cc2cc(Cl)ccc2Cl)c2ccc(Cl)cc21', 'fraction of GFP+ cells', 1.21),
  ('CC(C)(O)C1CCC(C)(C2C(O)CC3(C)C4CC(O)C5C(C)(C)C(O)CCC56CC46CCC23C)O1 (stereo not drawn) [Cyclogalegenol]', 'fraction of GFP+ cells', 0.875),
  ('CCN(CC)CCCC(C)Nc1ccnc2cc(Cl)ccc12 (stereo not drawn) [Chloroquine Phosphate]', 'fraction of GFP+ cells', 0.703),
  ('Cn1cc(C(=O)Nc2ccc3c(c2)OCCO3)c2ccccc2c1=O', 'fraction of GFP+ cells', 1.33),
  ('O=C(NC(NC(=S)Nc1ccc(F)c([N+](=O)[O-])c1)C(Cl)(Cl)Cl)C(c1ccccc1)c1ccccc1 (stereo not drawn)', 'fraction of GFP+ cells', 0.561);

====

Examples of molecules with documented fraction of GFP+ cells follow.
System: mESC LDLR-Dup GFP reporter (SpCas9 MH-deletion repair)
Test: fraction of GFP+ cells relative to DMSO control (fold change); higher = more MH-deletion repair to in-frame LDLR (or more editing)
Settings: 2 µM; 7 days post-transfection
Structures can show the parent of a compound that is named as a salt.
result_type: fraction of GFP+ cells

INSERT INTO measurements (molecule, target_entity, reported_result) VALUES
  ('CC1=CC(=O)c2ccccc2C1=O', 'mESC LDLR-Dup GFP reporter (SpCas9 MH-deletion repair)', 1.27),
  ('C[C@H]1COc2c(N3CCN(C)CC3)c(F)cc3c(=O)c(C(=O)O)cn1c23 [Levofloxacin hydrate]', 'mESC LDLR-Dup GFP reporter (SpCas9 MH-deletion repair)', 0.935),
  ('OCc1ccc(-c2ccc(-c3ccc(CO)s3)o2)s1', 'mESC LDLR-Dup GFP reporter (SpCas9 MH-deletion repair)', 0.657),
  ('O=C(O)c1ccc2c(c1)nc(Nc1cccc(Cl)c1)c1ccncc12', 'mESC LDLR-Dup GFP reporter (SpCas9 MH-deletion repair)', 0.655),
  ('CCn1cc(C(=O)O)c(=O)c2cc(F)c(N3CCNCC3)nc21', 'mESC LDLR-Dup GFP reporter (SpCas9 MH-deletion repair)', 1.04),
  ('NC(=O)c1ccccn1 [Picolinamide]', 'mESC LDLR-Dup GFP reporter (SpCas9 MH-deletion repair)', 1.08),
  ('CSc1nc2cc(Cl)c(Oc3cccc(Cl)c3Cl)cc2[nH]1', 'mESC LDLR-Dup GFP reporter (SpCas9 MH-deletion repair)', 1.67),
  ('Cc1cc(N2C[C@@H](C)N[C@@H](C)C2)ncc1-c1ccc(-c2nc3c(ccn3C)c(=O)[nH]2)cc1', 'mESC LDLR-Dup GFP reporter (SpCas9 MH-deletion repair)', 0.927),
  ('O=C(c1ccc(Cl)cc1Cl)n1nnc2ccccc21', 'mESC LDLR-Dup GFP reporter (SpCas9 MH-deletion repair)', 0.756),
  ('O=C(Nc1ccccc1-c1cn2c(CN3CC[C@@H](O)C3)csc2n1)c1ccc2ccccc2c1', 'mESC LDLR-Dup GFP reporter (SpCas9 MH-deletion repair)', 1.45),
  ('S=P(N1CC1)(N1CC1)N1CC1', 'mESC LDLR-Dup GFP reporter (SpCas9 MH-deletion repair)', 0.905),
  ('N=C1CCCN1Cc1[nH]c(=O)[nH]c(=O)c1Cl [Tipiracil hydrochloride]', 'mESC LDLR-Dup GFP reporter (SpCas9 MH-deletion repair)', 0.837),
  ('O=c1c(O)c(-c2ccc(O)c(O)c2)oc2cc(O)ccc12', 'mESC LDLR-Dup GFP reporter (SpCas9 MH-deletion repair)', 1.39);

====

Test system: mESC LDLR-Dup GFP reporter (SpCas9 MH-deletion repair)
Test: fraction of GFP+ cells relative to DMSO control (fold change); higher = more MH-deletion repair to in-frame LDLR (or more editing)
Settings: 2 µM; 7 days post-transfection
Counter-ions that a name gives are not always drawn.
Lab note: anything with fraction of GFP+ cells at or over 1 counts as yes (1); the rest go in no (0).

INSERT INTO assay_data (compound, assigned_category) VALUES
  ('C[C@@H](N)[C@H]1CC[C@H](C(=O)Nc2ccncc2)CC1', 'yes (1)'),
  ('CO[C@@H]1[C@@H](OC(N)=O)[C@@H](O)[C@H](Oc2ccc3c(O)c(NC(=O)c4ccc(O)c(CC=C(C)C)c4)c(=O)oc3c2C)OC1(C)C [Novobiocin Sodium]', 'yes (1)'),
  ('O=C(O[C@@H]1Cc2c(O)cc(O)cc2O[C@@H]1c1cc(O)c(O)c(O)c1)c1cc(O)c(O)c(O)c1 [(-)-Epigallocatechin Gallate]', 'no (0)'),
  ('CO[C@H]1/C=C/O[C@@]2(C)Oc3c(C)c(O)c4c(O)c(c(/C=N/N5CCN(C)CC5)c(O)c4c3C2=O)NC(=O)/C(C)=C\C=C\[C@H](C)[C@H](O)[C@@H](C)[C@@H](O)[C@@H](C)[C@H](OC(C)=O)[C@@H]1C [Rifampin]', 'yes (1)'),
  ('NC(=O)c1nc(F)cnc1O [Favipiravir (T-705)]', 'no (0)'),
  ('Nc1nc(=O)c2c([nH]1)NC[C@H](CNc1ccc(C(=O)N[C@@H](CCC(=O)O)C(=O)O)cc1)N2C=O [Calcium Levofolinate]', 'yes (1)'),
  ('O=c1cc(N2CCOCC2)oc2c(-c3ccc4c(c3)OCCO4)csc12', 'no (0)'),
  ('Cc1ccc(C(=O)OCc2ccc([C@@H](CN)C(=O)Nc3ccc4cnccc4c3)cc2)c(C)c1', 'yes (1)'),
  ('Nc1nc(NC2CC2)cc(-c2cccc(Cl)c2Cl)n1', 'no (0)'),
  ('CCn1cc(C(=O)O)c(=O)c2cc(F)c(N3CCN(C)CC3)cc21 [Pefloxacin Mesylate Dihydrate]', 'yes (1)'),
  ('CCCCOc1c(C(=O)c2c(F)cc(C)cc2F)c[nH]c2nncc1-2', 'yes (1)'),
  ('CN(C)C(=O)c1cc2cnc(Nc3ccc(N4CCNCC4)cn3)nc2n1C1CCCC1 [Ribociclib (LEE011)]', 'yes (1)'),
  ('Cc1ccc(S(=O)(=O)c2ccc([N+](=O)[O-])o2)cc1', 'yes (1)'),
  ('NC1CCN(c2c(F)cc3c(=O)c(C(=O)O)cn(C4CC4)c3c2Cl)C1 (stereo not drawn) [Clinafloxacin]', 'no (0)'),
  ('O=C(O)CCCc1ccccc1 [Sodium Phenylbutyrate]', 'no (0)'),
  ('CCc1ccc(CCOc2ccc(CC3SC(=O)NC3=O)cc2)nc1 (stereo not drawn) [Pioglitazone HCl]', 'yes (1)'),
  ('Nc1nc2[nH]cc(CCc3ccc(C(=O)N[C@@H](CCC(=O)O)C(=O)O)cc3)c2c(=O)[nH]1 [Pemetrexed Disodium Hydrate]', 'yes (1)'),
  ('C[C@@H](CN1CC(=O)NC(=O)C1)N1CC(=O)NC(=O)C1 [Dexrazoxane HCl (ICRF-187, ADR-529)]', 'yes (1)'),
  ('CS(=O)(=O)OCCCCOS(C)(=O)=O [Busulfan]', 'yes (1)'),
  ('CCCC(CCC)C(=O)O [valproic acid]', 'no (0)');
